Origin of values: patent US8575203B2

- systemName: Recombinant human PDK1 enzyme (aa 52-556) (Homo sapiens (Human))
- testMethodNotes: PDK1 kinase assay
- assaySetup: in vitro kinase assay, His6-PDK1 (aa 52-556), PDKtide, P33-ATP
# IC50 values compiled below
Give the number; nM is assumed, so skip it.

{"lineNotation": "CC(C)Nc1cnc2ccc(C#CCNC(=O)c3cncn(Cc4ccc(F)c(F)c4)c3=O)cc2n1", "outputUnit": "nM", "experimentalValue": 21}
{"lineNotation": "CCN(CC)c1c(C#N)cnc2ccc(C#CCNC(=O)c3cccn(Cc4ccc(F)c(F)c4)c3=O)cc12", "outputUnit": "nM", "experimentalValue": 276}
{"lineNotation": "CN1CCCN(c2ncnc3ccc(C#CCNC(=O)c4cccn(Cc5ccc(F)c(F)c5)c4=O)cc23)CC1", "outputUnit": "nM", "experimentalValue": 156}
{"lineNotation": "O=C(NCC#Cc1ccc2nccc(-c3cn[nH]c3)c2c1)c1cncn(Cc2ccc(F)c(F)c2)c1=O", "outputUnit": "nM", "experimentalValue": 35}
{"lineNotation": "COc1ncnc2ccc(C#CCNC(=O)c3cncn(Cc4ccc(F)c(F)c4)c3=O)cc12", "outputUnit": "nM", "experimentalValue": 37}
{"lineNotation": "CCN(CC)c1ncnc2ccc(C#CCNC(=O)c3c(C)n(CCO)n(Cc4ccc(F)c(F)c4)c3=O)cc12", "outputUnit": "nM", "experimentalValue": 50}
{"lineNotation": "O=C(NCC#Cc1ccc2ncc(N[C@H]3CC[C@H](N4CCOCC4)CC3)nc2c1)c1cccn([C@H](CO)c2cccc(F)c2)c1=O", "outputUnit": "nM", "experimentalValue": 5}

Reported IC50 of "CN(CC1CCCCC1)c1c(C#N)cnc2ccc(C#CCNC(=O)c3cccn(Cc4ccc(F)c(F)c4)c3=O)cc12" : 683

* * *

# IC50 values compiled below
- systemName: Recombinant human PDK1 enzyme (aa 52-556) (Homo sapiens (Human), UniProt O15530)
- Sequence (O15530 52-556): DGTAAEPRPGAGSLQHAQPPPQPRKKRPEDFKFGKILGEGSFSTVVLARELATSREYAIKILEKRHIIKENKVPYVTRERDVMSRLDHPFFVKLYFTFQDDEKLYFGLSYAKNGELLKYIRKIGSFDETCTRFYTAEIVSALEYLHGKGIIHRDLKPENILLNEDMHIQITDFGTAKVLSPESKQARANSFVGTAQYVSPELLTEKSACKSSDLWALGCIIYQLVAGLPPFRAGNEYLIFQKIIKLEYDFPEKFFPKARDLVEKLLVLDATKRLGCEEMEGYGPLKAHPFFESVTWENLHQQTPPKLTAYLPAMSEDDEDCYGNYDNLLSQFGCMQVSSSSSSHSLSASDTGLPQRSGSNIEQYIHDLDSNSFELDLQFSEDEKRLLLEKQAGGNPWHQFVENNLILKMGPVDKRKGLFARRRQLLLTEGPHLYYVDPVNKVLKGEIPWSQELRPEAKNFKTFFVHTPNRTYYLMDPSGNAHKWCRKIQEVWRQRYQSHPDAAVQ
- testMethodNotes: PDK1 kinase assay
- assaySetup: in vitro kinase assay, His6-PDK1 (aa 52-556), PDKtide, P33-ATP
Give the number; nM is assumed, so skip it.

{"molecule": "CN1CCC(Nc2cnc3ccc(C#CCNC(=O)c4cccn([C@@H](CO)c5ccc(F)c(F)c5)c4=O)cc3n2)CC1", "outputUnit": "nM", "IC50": 3}
{"molecule": "CCN1CCC(Nc2cnc3ccc(C#CCNC(=O)c4cncn(Cc5ccc(F)c(F)c5)c4=O)cc3n2)CC1", "outputUnit": "nM", "IC50": 6}
{"molecule": "NC(=O)CCNc1ncnc2ccc(C#CCNC(=O)c3cccn(Cc4ccc(F)c(F)c4)c3=O)cc12", "outputUnit": "nM", "IC50": 79}
{"molecule": "CN(C)CCNc1cnc2ccc(C#CCNC(=O)c3cncn(Cc4ccc(F)c(F)c4)c3=O)cc2n1", "outputUnit": "nM", "IC50": 35}
{"molecule": "COc1ccnc2ccc(C#CCNC(=O)c3cccn(Cc4ccc(F)c(F)c4)c3=O)cc12", "outputUnit": "nM", "IC50": 128}

Reported IC50 of CN1CCC(Oc2ccnc3ccc(C#CCNC(=O)c4cncn(Cc5ccc(F)c(F)c5)c4=O)cc23)C1 (stereo not shown) : 119

Reported IC50 of "CN(C)CCCOc1ccnc2ccc(C#CCNC(=O)c3cncn(Cc4ccc(F)c(F)c4)c3=O)cc12" : 15
